ASSAY REMARKS: Compound stability in human liver microsomes
Format: in vitro ADME
COND: human liver microsomes 0.5 mg protein/mL, compound 5 μM, NADPH 1.0 mM, pH 7.4, 37° C.; read-out: Human T1/2
ENDPOINT: half-life at 5 μM (h)

Solved entries (count: 2):
CC(O)Cc1nc2cc(Nc3ncc(Cl)c(NC4CCN(c5ccc(C#N)nn5)CC4)n3)ccn2n1 (stereo not shown) [Example 56]    0.794
CC(C)(O)Cc1nc2ccc(Nc3ncc(Cl)c(NC4CCN(c5ccc(C#N)cn5)CC4)n3)cn2n1 [Example 67]    2.12

P = Cn1nnc2cc(Nc3ncc(Cl)c(NC4CCN(c5ccc(C#N)nn5)CC4)n3)ccc21 [Example 47]
Q = CC(C)(O)Cc1nc2cc(Nc3ncc(Cl)c(NC4CCN(c5ccc(C#N)cn5)CC4)n3)ccn2n1 [Example 78]
In: Consider entries P and Q . Which has the numerically lower half-life at 5 μM? The response must carry the label of the picked entry.
Out: Q
(Q: 0.588 h, P: 1.8 h)
